Listed here are compounds together with their documented inhibition at 3 µM.
measured.on: 5-lipoxygenase (Homo sapiens, UniProt P09917)
Construct: endogenous in cells; host or cells: human peripheral blood mononuclear leukocytes (PBMLs)
Sequence (P09917 whole entry): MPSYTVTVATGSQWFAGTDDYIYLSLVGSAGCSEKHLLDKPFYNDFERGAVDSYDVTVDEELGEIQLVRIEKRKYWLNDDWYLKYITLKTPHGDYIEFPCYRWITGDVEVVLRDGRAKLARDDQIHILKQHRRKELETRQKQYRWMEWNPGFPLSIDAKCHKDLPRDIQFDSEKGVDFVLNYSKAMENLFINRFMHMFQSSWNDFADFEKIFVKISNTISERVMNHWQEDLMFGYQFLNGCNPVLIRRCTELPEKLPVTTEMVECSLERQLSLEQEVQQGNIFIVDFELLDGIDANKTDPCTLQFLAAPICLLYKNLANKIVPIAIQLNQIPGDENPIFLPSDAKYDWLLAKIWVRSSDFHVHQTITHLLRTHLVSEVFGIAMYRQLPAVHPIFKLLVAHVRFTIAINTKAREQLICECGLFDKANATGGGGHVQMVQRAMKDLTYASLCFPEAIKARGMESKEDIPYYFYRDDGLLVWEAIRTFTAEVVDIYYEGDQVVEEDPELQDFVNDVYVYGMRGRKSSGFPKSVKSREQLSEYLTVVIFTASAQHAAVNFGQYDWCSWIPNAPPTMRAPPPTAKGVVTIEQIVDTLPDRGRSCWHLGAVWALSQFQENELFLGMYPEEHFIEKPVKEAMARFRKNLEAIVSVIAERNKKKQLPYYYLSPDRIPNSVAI
method.description: 5-lipoxygenase activity (LTB4) in human peripheral blood mononuclear leukocytes (Assay 6)
Assay type: cell-based
condition.info: 3 μM, human PBMLs, A23187 30 μM, read-out: Inhibition of 5-LO (%)
Report as a plain number; the unit % is understood.

Let me know recorded inhibition at 3 µM for "COc1cc(CCC(=O)CC(=O)c2cccc(Cl)c2)ccc1O" , thanks.
62

Let me know recorded inhibition at 3 µM for "COc1cc(CCC(=O)CC(=O)C2(C)CC2)ccc1O" , thanks.
47

Let me know recorded inhibition at 3 µM for "COc1cc(CCC(=O)CC(=O)C(c2ccccc2)c2ccccc2)ccc1O" , thanks.
50

Let me know recorded inhibition at 3 µM for "COc1cc(CCC(=O)CC(=O)c2ccccc2-c2ccccc2)ccc1O" , thanks.
48

Let me know recorded inhibition at 3 µM for "COc1cc(CCC(=O)CC(=O)c2ccc(-c3ccccc3)cc2)ccc1O" , thanks.
58

Let me know recorded inhibition at 3 µM for "COc1cc(CCC(=O)CC(=O)c2ccc(C(C)(C)C)cc2)ccc1O" , thanks.
52

Let me know recorded inhibition at 3 µM for COc1cc(CCC(=O)C(C)C(=O)c2ccc(O)c(OC)c2)ccc1O (stereo not shown) , thanks.
20

Let me know recorded inhibition at 3 µM for "COc1cc(CCC(=O)CC(=O)c2ccc(Cl)cc2C)ccc1O" , thanks.
74

Let me know recorded inhibition at 3 µM for "COc1cc(CCC(=O)CC(=O)C(C)(C)C)ccc1O" , thanks.
30

Let me know recorded inhibition at 3 µM for "COC(=O)c1ccc(C(=O)CC(=O)CCc2ccc(O)c(OC)c2)cc1" , thanks.
54

Let me know recorded inhibition at 3 µM for "COc1cc(CCC(=O)C(C)(C)C(=O)C(C)(C)C)ccc1O" , thanks.
6

Let me know recorded inhibition at 3 µM for COc1cc(CCC(=O)C(C)C(=O)c2ccc(C)cc2)ccc1O (stereo not shown) , thanks.
57

Let me know recorded inhibition at 3 µM for COc1cc(CCC(=O)C(C)C(=O)C2(C)CC2)ccc1O (stereo not shown) , thanks.
24

Let me know recorded inhibition at 3 µM for "COc1cc(CCC(=O)C(C)(C)C(=O)c2ccc(C)cc2)ccc1O" , thanks.
64

Let me know recorded inhibition at 3 µM for "COc1cc(CCC(=O)CC(=O)c2ccc3ccccc3c2)ccc1O" , thanks.
60

Let me know recorded inhibition at 3 µM for "COc1cc(CCC(=O)C(C)(C)C(=O)C2(C)CC2)ccc1O" , thanks.
-1

Let me know recorded inhibition at 3 µM for COc1cc(CCC(=O)C(Cc2ccccc2)C(=O)c2ccccc2)ccc1O (stereo not shown) , thanks.
51

Let me know recorded inhibition at 3 µM for "COc1cc(CCC(=O)CC(=O)C(C)(C)c2ccccc2)ccc1O" , thanks.
32

Let me know recorded inhibition at 3 µM for "COc1cc(CCC(=O)CC(=O)c2ccc(C)cc2)ccc1O" , thanks.
61

---

Test system: IL-1α-induced PGE2 release
method.description: IL-1α-induced PGE2 release in human diploid lung fibroblasts (WI-38) (Assay 5)
Assay type: cell-based
condition.info: Homo sapiens; 30 μM; WI-38 cells, IL-1α 1 nM, overnight
measurement.name: inhibition at 30 µM (%)
Report as a plain number; the unit % is understood.

COc1cc(CCC(=O)CC(=O)c2ccc(O)c(OC)c2)ccc1O
95
COc1cc(CCC(=O)C(C)(C)C(=O)C2(C)CC2)ccc1O
86
COc1cc(CCC(=O)CC(=O)c2ccccc2)ccc1O
102

Let me know recorded inhibition at 30 µM for "COc1cc(CCC(=O)C(C)(C)C(=O)C(C)(C)C)ccc1O" , thanks.
95

---

System: WI-38 cells
method.description: Viability of WI-38 cells, Alamar Blue (Assay 5)
Format: cell-based, human
condition.info: 3 μM
measurement.name: Decrease in cell viability (%)
Report as a plain number; the unit % is understood.

COc1cc(CCC(=O)C(C)(C)C(=O)c2ccccc2)ccc1O
−4
COc1cc(CCC(=O)CC(=O)C(C)(C)c2ccccc2)ccc1O
5
COc1cc(CCC(=O)CC(=O)c2ccccc2Cl)ccc1O
1
CCC(C(=O)CCc1ccc(O)c(OC)c1)C(=O)c1ccccc1 (stereo not drawn)
6
COc1cc(CCC(=O)CC(=O)c2ccc(O)c(OC)c2)ccc1O
−2

Let me know recorded Decrease in cell viability (%) for "COc1cc(CCC(=O)CC(=O)c2ccc(C(C)(C)C)cc2)ccc1O" , thanks.
4

Let me know recorded Decrease in cell viability (%) for "COc1cc(CCC(=O)CC(=O)Cc2ccccc2)ccc1O" , thanks.
1

Let me know recorded Decrease in cell viability (%) for "COc1cc(CCC(=O)CC(=O)c2cccc(Cl)c2)ccc1O" , thanks.
3

Let me know recorded Decrease in cell viability (%) for "COc1cc(CCC(=O)CC(=O)C(c2ccccc2)c2ccccc2)ccc1O" , thanks.
−10

---

System: 5-HT-induced contractions in guinea pig ileum
method.description: Inhibition of 5-HT-induced contractions in guinea pig ileum (Assay 3)
condition.info: 3 μM; 5-HT 2.6 μM
Listed here are compounds together with their documented Inhibition of 5-HT-induced contraction (%).
Report as a plain number; the unit % is understood.

Solved cases (3 shown):
COc1cc(CCC(=O)CC(=O)c2ccc(Cl)cc2Cl)ccc1O [Compound 24]
5
CCC(=O)CC(=O)CCc1ccc(O)c(OC)c1 [3-gingerdione, reference compound]
0
COc1cc(CCC(=O)CC(=O)C(C)C)ccc1O [Compound 1]
0

For the next question, use this compound.
State, for 5-HT-induced contractions in guinea pig ileum, measured Inhibition of 5-HT-induced contraction (%) of the compound listed here: COc1cc(CCC(=O)CC(=O)c2ccc(Cl)c(Cl)c2)ccc1O [Compound 23]
11

---

Listed here are compounds together with their documented inhibition at 30 µM.
Test system: IL-1α-induced PGE2 release
method.description: IL-1α-induced PGE2 release in human diploid lung fibroblasts (WI-38) (Assay 5)
Type: cell-based
condition.info: Homo sapiens; 30 μM; WI-38 cells, IL-1α 1 nM, overnight
Report as a plain number; the unit % is understood.

COc1cc(CCC(=O)CC(=O)c2ccc3ccccc3c2)c(Cl)cc1O [Compound 86]
100
COc1cc(CCC(=O)CC(=O)c2ccc(Cl)cc2C)ccc1O [Compound 76]
101
COc1cc(CCC(=O)CC(=O)C(C)(C)C)ccc1O [Compound 2]
102
COc1cc(CCC(=O)CC(=O)c2ccc3ccccc3c2)ccc1O [Compound 26]
100

For the next question, use this compound.
Let me know recorded inhibition at 30 µM for COc1cc(CCC(=O)C(C)(C)C(=O)c2ccccc2)ccc1O [Compound 32] , thanks.
101

---

System: WI-38 cells
method.description: Viability of WI-38 cells, Alamar Blue (Assay 5)
Format: cell-based, human
condition.info: 30 μM
measurement.name: Decrease in cell viability (%)
Report as a plain number; the unit % is understood.

Let me know recorded Decrease in cell viability (%) for COc1cc(CCC(=O)CC(=O)c2cccc(Cl)c2)ccc1O [Compound 22] , thanks.
9

---

measured.on: UniProtKB O35433
Sequence (O35433 whole entry): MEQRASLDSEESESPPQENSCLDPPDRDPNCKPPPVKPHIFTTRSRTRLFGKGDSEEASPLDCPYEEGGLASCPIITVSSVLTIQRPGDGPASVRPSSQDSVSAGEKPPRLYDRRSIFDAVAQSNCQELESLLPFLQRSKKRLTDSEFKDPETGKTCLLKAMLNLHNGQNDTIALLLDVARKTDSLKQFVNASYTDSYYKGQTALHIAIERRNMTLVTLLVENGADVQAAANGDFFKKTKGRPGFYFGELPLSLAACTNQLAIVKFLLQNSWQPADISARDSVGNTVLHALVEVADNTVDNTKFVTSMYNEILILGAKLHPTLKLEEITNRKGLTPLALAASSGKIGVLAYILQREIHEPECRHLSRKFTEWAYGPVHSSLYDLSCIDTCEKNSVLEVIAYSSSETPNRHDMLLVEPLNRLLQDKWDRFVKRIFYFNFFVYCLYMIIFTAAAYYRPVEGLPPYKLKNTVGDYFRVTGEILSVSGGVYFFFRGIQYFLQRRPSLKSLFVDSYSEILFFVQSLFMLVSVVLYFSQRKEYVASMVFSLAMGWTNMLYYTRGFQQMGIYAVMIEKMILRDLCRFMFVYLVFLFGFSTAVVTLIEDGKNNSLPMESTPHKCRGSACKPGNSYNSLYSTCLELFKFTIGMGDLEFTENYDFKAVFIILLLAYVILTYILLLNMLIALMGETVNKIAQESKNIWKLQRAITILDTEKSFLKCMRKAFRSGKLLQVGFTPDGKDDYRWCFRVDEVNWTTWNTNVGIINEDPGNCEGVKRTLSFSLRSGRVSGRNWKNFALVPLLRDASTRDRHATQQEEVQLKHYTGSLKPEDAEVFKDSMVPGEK
method.description: TRPV1 modulation in DRG neurones: CGRP release in absence and presence of capsaicin (Assay 2)
Type: cell-based
Parameters: The culture used for this experiment contained sensory neurones, Schwann cells and fibroblasts; endogenous in cells; host or cells: primary rat DRG sensory neurone culture (with Schwann cells and fibroblasts)
condition.info: 20 min; test compound alone 30 μM, rat DRG sensory neurones, 20 min; read-out: CGRP release (% of capsaicin (1 μM) response)
measurement.name: Emax at 30 µM (%)
Report as a plain number; the unit % is understood.

Solved cases (8 shown):
COc1cc(CCC(=O)C(Cc2ccccc2)C(=O)c2ccccc2)ccc1O (stereo not shown)
245
COc1cc(CCC(=O)CC(=O)c2ccc(Cl)cc2)ccc1O
150
COc1cc(CCC(=O)CC(=O)c2ccc(C#N)cc2)ccc1O
58
COc1cc(CCC(=O)CC(=O)C(C)(C)c2ccccc2)ccc1O
109
COc1cc(CCC(=O)CC(=O)c2ccccc2Cl)ccc1O
75
COc1ccc(C(=O)C(C)C(=O)CCc2ccc(O)c(OC)c2)cc1 (stereo not shown)
183
COc1cc(CCC(=O)CC(=O)c2ccc3ccccc3c2)ccc1O
248
COc1cc(CCC(=O)CC(=O)C(c2ccccc2)c2ccccc2)ccc1O
122

Let me know recorded Emax at 30 µM for "COc1cc(CCC(=O)CC(=O)C(C)(C)C)ccc1O" , thanks.
117

Let me know recorded Emax at 30 µM for "COc1cc(CCC(=O)CC(=O)C2(C)CC2)ccc1O" , thanks.
49

These measurements were taken from patent US7589123B2.
